Tested on: WESSV
Assay: microbe, parasite or virus in culture
Format: cell-based, Wesselsbron virus
Conditions: Wesselsbron virus, Vero, 48 h; read-out: IC50, WESSV infectivity
attribute-measured: IC50 (µM)

molecule-smiles | unit-tag | meas-value
O=C(N/C(=C\c1ccccc1)C(=O)N1CCC(O)(c2ccc(Br)cc2)CC1)c1ccccc1 | µM | 6.8
